- TESTED_ON: ERRα1 (Homo sapiens, UniProt P11474)
- Construct: expressed in transfected cells; host or cells: COS cells (whole-cell extract)
- ASSAY_TEXT: Quantitative competition EMSA of unlabeled oligodeoxynucleotides against 32P-labeled reference consensus ERRE
- Format: binding
- ASSAY_SETUP: relative to reference consensus ERRE; reciprocal of fold molar excess of competitor reducing shifted probe by 50%; COS whole cell extracts
# note: boundary value 0.1 maps to not met; Relative binding affinity (RBA) of ERRα1 for DNA sequence below it maps to met

Q: Please check: Relative binding affinity (RBA) of ERRα1 for DNA sequence for GCGAGGAAAGCGTGAAGGTGATTTCAGTTAATT (chemistry not given here) [cyclin D1] , strictly under 0.1 or not?
Result: met

###

- TESTED_ON: ERRα1 (Homo sapiens, UniProt P11474)
- Construct: expressed in transfected cells; host or cells: COS cells (whole-cell extract)
- ASSAY_TEXT: Quantitative competition EMSA of unlabeled oligodeoxynucleotides against 32P-labeled reference consensus ERRE
- Assay type: binding
- ASSAY_SETUP: relative to reference consensus ERRE; reciprocal of fold molar excess of competitor reducing shifted probe by 50%; COS whole cell extracts
# note: boundary value 0.4 maps to FALSE; Relative binding affinity (RBA) of ERRα1 for DNA sequence below it maps to TRUE

For orientation, consider the following solved cases.
Q: Please check: Relative binding affinity (RBA) of ERRα1 for DNA sequence for TCCTAAGGACTGTCAAGGTCATCAAATACAAGG (chemistry not given here) [PgR site 3] , strictly under 0.4 or not?
Result: FALSE

Q: Please check: Relative binding affinity (RBA) of ERRα1 for DNA sequence for CTCCCATCTCACTTAAGGTCAAAGCCAGGGTCC (chemistry not given here) [elk1] , strictly under 0.4 or not?
Result: TRUE

Q: Please check: Relative binding affinity (RBA) of ERRα1 for DNA sequence for GCTCCGGCTCGCTGAAGGTCACAGCCGAGGCGA (chemistry not given here) [IGF1R] , strictly under 0.4 or not?
Result: TRUE

Q: Please check: Relative binding affinity (RBA) of ERRα1 for DNA sequence for CAAATTTGAAACTAAAGGTCACAGGCTGCTTTA (chemistry not given here) [Pr1 site 2] , strictly under 0.4 or not?
Result: TRUE

Q: Please check: Relative binding affinity (RBA) of ERRα1 for DNA sequence for TCCTTGCTAAACCCAAGGTCATAAATCTTTTCT (chemistry not given here) [PgR site 2] , strictly under 0.4 or not?
Result: FALSE

***
Q: Please check: Relative binding affinity (RBA) of ERRα1 for DNA sequence for CAAATAATGGGCTGAAGGTGAACTATCTTTACT (chemistry not given here) [EGF] , strictly under 0.4 or not?
Result: TRUE

Q: Please check: Relative binding affinity (RBA) of ERRα1 for DNA sequence for AAAGGAACTTTCCCAAGGTCACAGAGCTGAGCT (chemistry not given here) [ErbB2] , strictly under 0.4 or not?
Result: FALSE

###

Collected Relative binding affinity (RBA) of ERRα1 for DNA sequence values appear next to each entry.
- TESTED_ON: ERRα1 (Homo sapiens, UniProt P11474)
- Construct: expressed in transfected cells; host or cells: COS cells (whole-cell extract)
- ASSAY_TEXT: Quantitative competition EMSA of unlabeled oligodeoxynucleotides against 32P-labeled reference consensus ERRE
- Format: binding
- ASSAY_SETUP: relative to reference consensus ERRE; reciprocal of fold molar excess of competitor reducing shifted probe by 50%; COS whole cell extracts
Please state the value as a number alone, without comment.

Q: Supply measured Relative binding affinity (RBA) of ERRα1 for DNA sequence of AGAACATCCCTTTTAAGGTCAGAACAAAGGTAT (chemistry not given here) [BRCA2] in your reply.
Result: 0.08

***
Q: Supply measured Relative binding affinity (RBA) of ERRα1 for DNA sequence of CCTCAGAGTGGCTCAGGGTCAGAGAAGGTAGAG (chemistry not given here) [Pr1 site 3] in your reply.
Result: 0.07

Q: Supply measured Relative binding affinity (RBA) of ERRα1 for DNA sequence of AAAATTGTTTTGTCTAGGTCATTTGCATTTTCA (chemistry not given here) [PgR site 1] in your reply.
Result: 0.14

Q: Supply measured Relative binding affinity (RBA) of ERRα1 for DNA sequence of ATGTTTGGTATGAAAAGGTCACATTTTATATTC (chemistry not given here) [ERα] in your reply.
Result: 0.11

###

- TESTED_ON: ERRα1 (Homo sapiens, UniProt P11474)
- Construct: expressed in transfected cells; host or cells: COS cells (whole-cell extract)
- Sequence (P11474 1-423): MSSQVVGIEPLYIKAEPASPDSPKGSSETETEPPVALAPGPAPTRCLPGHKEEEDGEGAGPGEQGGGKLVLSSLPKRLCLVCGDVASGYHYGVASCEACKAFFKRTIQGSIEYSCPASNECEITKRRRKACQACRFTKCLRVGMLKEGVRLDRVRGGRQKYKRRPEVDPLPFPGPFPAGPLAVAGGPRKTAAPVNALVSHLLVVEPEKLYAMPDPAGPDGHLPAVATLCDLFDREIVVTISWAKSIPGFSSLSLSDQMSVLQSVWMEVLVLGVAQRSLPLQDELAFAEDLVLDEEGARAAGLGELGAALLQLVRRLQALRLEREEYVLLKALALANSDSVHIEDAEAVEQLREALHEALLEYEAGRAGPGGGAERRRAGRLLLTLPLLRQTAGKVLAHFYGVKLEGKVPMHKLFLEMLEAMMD
- ASSAY_TEXT: Quantitative competition EMSA of unlabeled oligodeoxynucleotides against 32P-labeled reference consensus ERRE
- Type: binding
- ASSAY_SETUP: relative to reference consensus ERRE; reciprocal of fold molar excess of competitor reducing shifted probe by 50%; COS whole cell extracts
- Protocol: Quantitative gel-mobility-shift assays: DNA binding was assayed in 20 μl of a buffer containing 10 mM HEPES (pH 7.5), 2.5 mM MgCl2, 50 μM EDTA, 1 mM dithiothreitol, 6% glycerol and 100 ng/μl of poly(dI-dC)·poly(dI-dC). Competition binding assays included unlabeled competitor oligonucleotide as well. […] Supershift assays contained 1 μl of a 1:10 dilution of whole antiserum. […] Quantitation was performed with a PhosphorImager (Molecular Dynamics). […]
# note: boundary value 0.5 maps to class 0; Relative binding affinity (RBA) of ERRα1 for DNA sequence below it maps to class 1

For orientation, consider the following solved cases.
Q: Please check: Relative binding affinity (RBA) of ERRα1 for DNA sequence for TCGAGAGCAGTGGCGATTTGTCAAGGTCACACAGTGAG (DNA, backbone not given here) [Reference ERRE, reference compound] , strictly under 0.5 or not?
Result: class 0

Q: Please check: Relative binding affinity (RBA) of ERRα1 for DNA sequence for GTAGGACCTGGATTAAGGTCAGGTTGGAGGAGA (chemistry not given here) [pS2 site 2] , strictly under 0.5 or not?
Result: class 1

Q: Please check: Relative binding affinity (RBA) of ERRα1 for DNA sequence for TGTCCATTTTCTTCTAGGTCAACCCCAATGGTA (chemistry not given here) [Pr1 site 1] , strictly under 0.5 or not?
Result: class 1

***
Q: Please check: Relative binding affinity (RBA) of ERRα1 for DNA sequence for GGTGGACGCTGCTGAAGGTGAGCGAGACCCCGG (chemistry not given here) [IGF2 site 3] , strictly under 0.5 or not?
Result: class 1

Q: Please check: Relative binding affinity (RBA) of ERRα1 for DNA sequence for GGTGCTCCCACTTAGAGGTCACGCGCGGCGTCG (chemistry not given here) [ERβ] , strictly under 0.5 or not?
Result: class 0

Q: Please check: Relative binding affinity (RBA) of ERRα1 for DNA sequence for GGGAGTTCAGGGTAAAGGTCACGGGGCCGGGGC (chemistry not given here) [hMDM2] , strictly under 0.5 or not?
Result: class 1

###

Collected Relative binding affinity (RBA) of ERRα1 for DNA sequence values appear next to each entry.
- TESTED_ON: ERRα1 (Homo sapiens, UniProt P11474)
- Construct: expressed in transfected cells; host or cells: COS cells (whole-cell extract)
- Sequence (P11474 1-423): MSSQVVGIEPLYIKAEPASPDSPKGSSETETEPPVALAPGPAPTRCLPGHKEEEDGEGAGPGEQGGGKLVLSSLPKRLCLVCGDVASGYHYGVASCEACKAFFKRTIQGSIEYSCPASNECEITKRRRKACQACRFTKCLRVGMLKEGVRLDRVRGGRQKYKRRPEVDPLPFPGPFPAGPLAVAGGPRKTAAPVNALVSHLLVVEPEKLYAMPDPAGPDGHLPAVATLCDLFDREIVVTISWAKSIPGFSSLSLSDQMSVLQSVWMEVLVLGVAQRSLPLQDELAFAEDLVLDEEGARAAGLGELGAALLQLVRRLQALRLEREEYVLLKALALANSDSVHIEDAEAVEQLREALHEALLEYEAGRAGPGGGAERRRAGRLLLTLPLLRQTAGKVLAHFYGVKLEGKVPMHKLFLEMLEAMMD
- ASSAY_TEXT: Quantitative competition EMSA of unlabeled oligodeoxynucleotides against 32P-labeled reference consensus ERRE
- Format: binding
- ASSAY_SETUP: relative to reference consensus ERRE; reciprocal of fold molar excess of competitor reducing shifted probe by 50%; COS whole cell extracts

Look over these answered cases.
Q: Supply measured Relative binding affinity (RBA) of ERRα1 for DNA sequence of CTGTCGGCAGGAACAAGGTCACCCCTTGGCGTT (chemistry not given here) [IGF2 site 2] in your reply.
Result: 0.25

Q: Supply measured Relative binding affinity (RBA) of ERRα1 for DNA sequence of GTAATTGCTGTACGAAGGTCAGAATCGCTACCT (chemistry not given here) [BRCA1] in your reply.
Result: 0.17

***
Q: Supply measured Relative binding affinity (RBA) of ERRα1 for DNA sequence of TCCCTTCCCCCTGCAAGGTCACGGTGGCCACCC (chemistry not given here) [pS2 site 1] in your reply.
Result: 0.49

Q: Supply measured Relative binding affinity (RBA) of ERRα1 for DNA sequence of CCTGAGACTCTACCAAGGTCAGAAATGCTGCAA (chemistry not given here) [aromatase] in your reply.
Result: 0.17

Q: Supply measured Relative binding affinity (RBA) of ERRα1 for DNA sequence of TGGCATATTGGGTGAAGGTCAAGGGAGTGGCTT (chemistry not given here) [Cathepsin D] in your reply.
Result: 0.49
